B1: SCNN1D (parent)
chain: FLGHHSFSVRPGTEATISIREDEV

variants of: B1; assay: protein stability index of a GFP-peptide fusion (GPS, HEK-293T) (PSI 1-6); higher = more stable; details: c terminus: a fixed tail appended;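 also: lentivirally expressed fusions sorted by FACS into six bins by GFP to DsRed ratio, PSI derived from sequencing read proportions per bin multiplied by bin number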
Listed below: protein stability index values for each entry.
// response body must contain only the number

Worked cases, protein stability index given:
FMGHHSFSVRPGTEATISIREDEV [L2M]
1.95
FLGHHSFSKRPGTEATISIREDEV [V9K]
2.83

Now take the following variant into account.
Inquiry: protein stability index for FLGHHSFSVRPGTGATISIREDEV [E14G] ?
Reply text: 2.31
